The following compounds are shown together with reported EC50 values.
# System: SARS-CoV-2
# testDescription: Inhibitory activity of cytopathic effect (CPE) in HEK293T/ACE2-TMPRSS2 cells
# Format: cell-based
# conditionSet: Severe acute respiratory syndrome coronavirus 2, HEK-293T, 72 h, read-out: EC50 (50% SARS-CoV-2 infected cell death inhibitory concentration)

COc1nc(N2C3CCC(O)C2CC3)cc2c1c(=O)n(Cc1ncn(C)n1)c(=O)n2Cc1cc(F)c(F)c(F)c1 (stereo not drawn) [Compound I-0610] ... < 100 nM
COc1nc(N2[C@@H]3CCC[C@H]2CNC3)cc2c1c(=O)n(-c1cnc3ccccn13)c(=O)n2Cc1cc(F)c(F)c(Cl)c1 [Compound I-0648] ... < 100 nM

// assay SARS-CoV-2, entry COc1nc(N2[C@@H]3CC[C@H]2CNC3)cc2c1c(=O)n(-c1cnc3cc(F)c(Cl)cn13)c(=O)n2-c1ccc(F)c(Cl)c1 [Compound I-0950] , EC50 value = < 100 nM

###

# systemName: SARS-CoV-2 3CL protease (Severe acute respiratory syndrome coronavirus 2, UniProt P0DTD1)
# testDescription: Inhibitory activity test against SARS-CoV-2 3CL proteases
# Type: biochemical
# conditionSet: read-out: IC50 (50% SARS-CoV-2 3CL protease inhibitory concentration)
readoutType: IC50

Examples with their reported IC50 follow.
NC(=O)c1ccc(Cl)c(-c2ccc3c(=O)n(Cc4ccc[nH]c4=O)c(=O)n(Cc4cc(F)c(F)c(F)c4)c3c2)c1 ... < 100 nM
COc1nc(-c2cc(C#N)ccc2Cl)cc2c1c(=O)n(Cc1ncn(C)n1)c(=O)n2Cc1cc(F)c(F)c(F)c1 ... 33 nM
COc1cc(-n2c(=O)n(Cc3ncn(C)n3)c(=O)c3c(OC)nc(N4CC[C@@H](F)C4)cc32)cc(Cl)c1F ... < 100 nM
Cn1cnc(Cn2c(=O)c3c4c(c(-c5cc6c(cc5Cl)NC(=O)C6)cc3n(Cc3cc(F)c(F)c(F)c3)c2=O)CCO4)n1 ... 0.45 nM
COc1nc(N2CC[C@@H](O)C2)cc2c1c(=O)n(-c1cncc(C#N)c1)c(=O)n2-c1ccc(F)c(F)c1 ... < 100 nM

// field: IC50; key: COc1cc(-c2cc(C#N)ccc2Cl)cc2c1c(=O)n(-c1cnc3ccccn13)c(=O)n2Cc1cc(F)c(F)c(F)c1 [Compound I-0660] ; value = < 100 nM

Summary for this compound, COc1nc(N2CC[C@H](OC)C2)cc2c1c(=O)n(-c1cnc3cc(F)ccn13)c(=O)n2-c1ccc(F)c(Cl)c1 : IC50 is < 100 nM

Lab book: IC50 of COc1nc(N2CC[C@@H](F)C2)cc2c1c(=O)n(Cc1ncn(C)n1)c(=O)n2-c1cc(Cl)c(F)c(Cl)c1 noted as 32 nM

So, CNC(=O)Cn1c(=O)c2c3c(c(-c4cc(C#N)ccc4Cl)cc2n(Cc2cc(F)c(F)c(F)c2)c1=O)CCO3 ? Its IC50 was < 100 nM

So, COc1nc(C(C)C)cc2c1c(=O)n(-c1cnc3cc(F)ccn13)c(=O)n2-c1ccc(F)c(Cl)c1 ? Its IC50 was < 100 nM

The compound listed as COc1nc(N2CC(F)C2)cc2c1c(=O)n(-c1cnc3cc(F)ccn13)c(=O)n2-c1ccc(F)c(Cl)c1 shows IC50 equal to < 100 nM

Sure, the documented IC50 for COc1nc(-c2cc(C#N)ccc2Cl)cc2c1c(=O)n(-c1cnc3ccccn13)c(=O)n2Cc1ccc(F)c(C#N)c1 is 34 nM

For COc1nc(N2CC[C@@H](O)C2)cc2c1c(=O)n(-c1cncc(C(F)F)c1)c(=O)n2-c1ccc(F)c(Cl)c1 the compound record lists IC50 as < 100 nM

Given item COc1nc(N2C[C@H]3C[C@@H]2CN3)cc2c1c(=O)n(Cc1ncn(C)n1)c(=O)n2Cc1cc(F)c(F)c(F)c1 , the value recorded as its IC50 is 1.9 nM

###

# System: SARS-CoV-2
# testDescription: Inhibitory activity of cytopathic effect (CPE) in HEK293T/ACE2-TMPRSS2 cells
# Format: cell-based
# conditionSet: Severe acute respiratory syndrome coronavirus 2, HEK-293T, 72 h; HEK293T/ACE2-TMPRSS2 cells, cultured 3 days, CellTiter-Glo 2.0 luminescence; read-out: EC50 (50% SARS-CoV-2 infected cell death inhibitory concentration)
Listed next: entries and their corresponding EC50.

Cn1cnc(Cn2c(=O)c3c4nccnc4c(NC4CC5CC5C4)cc3n(Cc3cc(F)c(F)c(Cl)c3)c2=O)n1 (stereo not shown) [Compound I-0586] on SARS-CoV-2 gives EC50 = < 100 nM

Entry COc1nc(N2CCC(F)(F)C2)cc2c1c(=O)n(-c1cncc(C#N)c1)c(=O)n2-c1ccc(F)c(F)c1 [Compound I-1057] under SARS-CoV-2 had EC50 of < 100 nM

Summary: COc1nc(N2CC[C@@H](O)C2)cc2c1c(=O)n(-c1cncc(C#N)c1)c(=O)n2-c1ccc(F)c(F)c1 [Compound I-1027] , SARS-CoV-2, EC50 = < 100 nM

Note to self: EC50 of COc1nc(N2CCC(F)(F)C2)cc2c1c(=O)n(-c1cnc3ccc(C#N)cn13)c(=O)n2-c1ccc(F)c(Cl)c1 [Compound I-0654] with SARS-CoV-2 was < 100 nM

Form field EC50 for item COc1nc(N2CC[C@@H](C#N)C2)cc2c1c(=O)n(-c1cncc(OC(F)F)c1)c(=O)n2-c1ccc(F)c(Cl)c1 [Compound I-0951] on SARS-CoV-2: < 100 nM

Measured EC50 (SARS-CoV-2), entry COc1nc2c(=O)n(Cc3ncn(C)n3)c(=O)n(Cc3cc(C#N)c(F)cc3C)c2cc1-c1cc(C#N)ccc1Cl [Compound I-0723] : < 100 nM

For COc1nc(N2CC[C@@H](O)C2)cc2c1c(=O)n(-c1cnc3ccc(C#N)cn13)c(=O)n2-c1ccc(F)c(Cl)c1 [Compound I-0992] on SARS-CoV-2, measured EC50 was < 100 nM

Tested system SARS-CoV-2; EC50 recorded for Cn1cnc(Cn2c(=O)c3c4nccnc4c(N4CC[C@@H](O)C4)cc3n(Cc3cc(F)c(F)c(F)c3)c2=O)n1 (racemic) [Compound I-0552] was 100 to 1000 nM

Form: item O=c1c2c(=O)n(-c3cnc4cc(F)ccn34)c(=O)n(-c3ccc(F)c(Cl)c3)c2cc2n1CC[C@H]1CCCCN21 [Compound I-1063] ; test system SARS-CoV-2; EC50: 100 to 1000 nM

# value of EC50, SARS-CoV-2, item [2H]C([2H])([2H])O[C@@H]1CCN(c2cc3c(c(OC)n2)c(=O)n(-c2cnc4cc(F)ccn24)c(=O)n3-c2cc(Cl)c(F)c(OC)c2)C1 [Compound I-0764] = < 100 nM

Entry COc1nc(N2CCC(O)(C(F)F)C2)cc2c1c(=O)n(-c1cnc3cc(F)ccn13)c(=O)n2-c1ccc(F)c(Cl)c1 (stereo not shown) [Compound I-1056] : EC50 on SARS-CoV-2 = < 100 nM

Query COc1cc(-c2cc([C@@H](C)O)ccc2Cl)cc2c1c(=O)n(Cc1ncn(C)n1)c(=O)n2Cc1cc(F)c(F)c(F)c1 [Compound I-0839] on SARS-CoV-2; EC50 returned: 100 to 1000 nM

For COc1cc(-c2nc(C)ccc2Cl)cc2c1c(=O)n(Cc1ncn(C)n1)c(=O)n2Cc1cc(F)c(F)c(F)c1 [Compound I-0826] on SARS-CoV-2, measured EC50 was < 100 nM

###

# systemName: SARS-CoV-2 3CL protease (Severe acute respiratory syndrome coronavirus 2)
# testDescription: Inhibitory activity test against SARS-CoV-2 3CL proteases
# Type: biochemical
# conditionSet: read-out: IC50 (50% SARS-CoV-2 3CL protease inhibitory concentration)
Quick reference: IC50 of the listed items.

// solved cases for IC50 follow
COc1cc(-c2ncccc2Cl)cc2c1c(=O)n(Cc1ncn(C)n1)c(=O)n2Cc1cc(F)c(F)c(F)c1 ... < 100 nM
CCn1cnc(Cn2c(=O)c3c(OC)nc(N4CC[C@@H](F)C4)cc3n(Cc3cc(F)c(F)c(F)c3)c2=O)n1 ... < 100 nM
COc1nc(N2CCC(F)(F)C2)cc2c1c(=O)n(-c1cncc(C(F)F)c1)c(=O)n2-c1ccc(F)c(Cl)c1 ... < 100 nM
Cc1cc2c(=O)n(Cc3ncn(C)n3)c(=O)n(Cc3cc(F)c(F)c(F)c3)c2cc1-c1cc2c(cc1Cl)NC(=O)C2 ... 7.3 nM
COc1cc(-c2cc(-c3ncc[nH]3)ccc2Cl)cc2c1c(=O)n(-c1cncc(Cl)c1)c(=O)n2Cc1ccc(F)c(C#N)c1 ... < 100 nM
[2H]C([2H])([2H])O[C@@H]1CCN(c2cc3c(c(OC)n2)c(=O)n(-c2cncc(F)c2)c(=O)n3-c2ccc(F)c(Cl)c2)C1 ... < 100 nM
COc1cc(N2CCCC2)cc2c1c(=O)n(Cc1ncn(C)n1)c(=O)n2Cc1cc(Cl)ccc1Br ... < 100 nM
COc1nc(N2C[C@@H]3C[C@H]2CO3)cc2c1c(=O)n(-c1cncc(C#N)c1)c(=O)n2-c1ccc(F)c(F)c1 ... < 100 nM

Entry under test: Cn1cnc(Cn2c(=O)c3c(=O)n(C)c(N4CCC(F)(F)C4)cc3n(Cc3cc(F)c(F)c(Cl)c3)c2=O)n1 . Its IC50 was < 100 nM

The measured IC50 associated with COc1nc(N2CC[C@@H](C#N)C2)cc2c1c(=O)n(-c1cncc(OC(F)F)c1)c(=O)n2-c1ccc(F)c(F)c1 reads < 100 nM

The recorded IC50 for Cn1cnc(Cn2c(=O)c3c4c(c(-c5cc(C#N)ccc5Cl)cc3n(Cc3cc(F)c(F)c(F)c3)c2=O)C(F)(F)CO4)n1 is 6.4 nM

For record COc1cc(-c2cc3c(cc2Cl)NC(=O)C3)cc2c1c(=O)n(Cc1ncn(C)n1)c(=O)n2Cc1cc(F)c(F)c(F)c1 the listed IC50 is 4.5 nM

CCOc1nc2c(=O)n(Cc3ncn(C)n3)c(=O)n(Cc3cc(F)c(F)c(F)c3)c2cc1-c1cc(C#N)ccc1Cl yielded IC50 of < 100 nM

Input COc1nc(N2CCC3(CCOC3)C2)cc2c1c(=O)n(-c1cnc3cc(F)ccn13)c(=O)n2-c1ccc(F)c(Cl)c1 (centres unmarked) . Output IC50: < 100 nM

For COc1cc(-c2cc(C(=O)NCCO)ccc2Cl)cc2c1c(=O)n(-c1cncc(C)c1)c(=O)n2Cc1ccc(F)c(C#N)c1 the molecule record lists IC50 as < 100 nM

Looking up COC[C@@H](C)Nc1cc2c(c(OC)n1)c(=O)n(-c1cnc3cc(F)ccn13)c(=O)n2-c1ccc(F)c(Cl)c1 , I found its IC50 recorded as < 100 nM
